Recorded values, source patent US8188078B2.

VALUE_KIND: melting point (°C)
Numbers only; they are read as °C.

Input: Reported melting point, molecule CC(Oc1cc2sc(NC(=O)NCCO)nc2cc1F)c1c(Cl)ccc(F)c1Cl (centres unmarked) [Example 98] : ____
Output: 198

Input: Reported melting point, molecule CC(Oc1ccc2nc(NC(=O)NCCN3CCOCC3)sc2c1)c1ccccc1 (centres unmarked) [Example 14] : ____
Output: 161

Input: Reported melting point, molecule CC(Oc1cc2sc(NC(=O)NCCCO)nc2cc1F)c1c(Cl)ccc(F)c1Cl (centres unmarked) [Example 105] : ____
Output: 158

Input: Reported melting point, molecule Cc1cc(COc2ccc3nc(NC(=O)NCCN4CCOCC4)sc3c2)n(C)n1 [Example 20] : ____
Output: 160

Input: Reported melting point, molecule CC(Oc1ccc2nc(NC(=O)NCCN3CCCC3)sc2c1)c1c(Cl)ccc(Cl)c1Cl (centres unmarked) [Example 125] : ____
Output: 189

Input: Reported melting point, molecule O=C(NCCN1CCOCC1)Nc1nc2cc(F)c(OCc3c(Cl)cccc3Cl)cc2s1 [Example 21] : ____
Output: 206

###

Biological target: c-MET (Homo sapiens, UniProt P08581)
Construct: The recombinant DNA His-Tev-MET (956-1390) in pFastBac(Invitrogen); His (N, cleaved yes); Tev (TEV protease site) (N, cleaved yes)
Sequence (P08581 956-1390): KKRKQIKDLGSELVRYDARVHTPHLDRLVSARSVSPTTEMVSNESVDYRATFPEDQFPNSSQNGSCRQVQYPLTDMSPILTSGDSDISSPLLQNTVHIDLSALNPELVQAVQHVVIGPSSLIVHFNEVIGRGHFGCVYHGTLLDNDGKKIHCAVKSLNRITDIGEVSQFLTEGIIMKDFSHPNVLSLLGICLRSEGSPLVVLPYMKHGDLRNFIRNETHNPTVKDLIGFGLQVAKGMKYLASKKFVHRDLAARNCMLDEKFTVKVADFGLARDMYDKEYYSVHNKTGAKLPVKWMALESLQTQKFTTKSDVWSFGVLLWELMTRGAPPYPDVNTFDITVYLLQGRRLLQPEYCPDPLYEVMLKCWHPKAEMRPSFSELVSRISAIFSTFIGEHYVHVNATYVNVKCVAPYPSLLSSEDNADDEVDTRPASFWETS
Experiment: Test A: HTRF Met test in 96-well format
pIC50: −log10 of the molar value.
VALUE_KIND: pIC50

CC(Oc1ccc2nc(NC(=O)NCCN3CCOCC3)sc2c1)c1c(F)cccc1F (stereo not shown)
> 7.00
CC(Oc1ccc2nc(NC(=O)NCCN3CCCC3)sc2c1)c1c(F)ccc(Cl)c1Cl (single isomer, unassigned) [Example 121]
> 7.00
CC(Oc1cc2sc(NC(=O)NCCN3CCCC3)nc2cc1F)c1c(Cl)ccc(Cl)c1Cl (stereo not shown)
> 7.00

Input: Reported pIC50, molecule CC(Oc1ccc2nc(NC(=O)NCCN3CCOCC3)sc2c1)c1c(F)ccc(Cl)c1F (stereo not shown) : ____
Output: 5.00 to 7.00

Input: Reported pIC50, molecule O=C(NCCN1CCOCC1)Nc1nc2ccc(OC(c3c(Cl)cccc3Cl)C(F)(F)F)cc2s1 (stereo not shown) : ____
Output: > 7.00

Input: Reported pIC50, molecule CC(Oc1cc2sc(NC(=O)NC3CC3)nc2cc1F)c1c(Cl)ccc(F)c1Cl (stereo not shown) : ____
Output: > 7.00

Input: Reported pIC50, molecule CCN1CCN(CCNC(=O)Nc2nc3cc(F)c(OC(C)c4c(Cl)ccc(F)c4Cl)cc3s2)CC1 (single isomer, unassigned) [Example 102] : ____
Output: > 7.00

###

VALUE_KIND: melting point

The following compounds have reported results that may help.
Nc1nc2ccc(OCc3c(F)cccc3Cl)cc2s1 [Example 8]
175 °C
CC(Oc1cc2sc(NC(=O)NCC(=O)N3CCN(C)CC3)nc2cc1F)c1c(Cl)ccc(F)c1Cl (stereo not shown) [Example 129]
235 to 238 °C
CC(Oc1cc2sc(NC(=O)NCCn3cccc3)nc2cc1F)c1c(Cl)ccc(F)c1Cl (stereo not shown) [Example 91]
178 to 198 °C
CC(Oc1ccc2nc(NC(=O)NCCN3CCNCC3)sc2c1)c1c(Cl)ccc(F)c1Cl.O=C(O)C(F)(F)F (stereo not shown) [Example 37]
138 to 169 °C
CC(Oc1cc2sc(NC(=O)NCCN3CCCC3)nc2cc1F)c1c(Cl)ccc(Cl)c1Cl (stereo not shown) [Example 126]
103 to 107 °C
CC(Oc1ccc2nc(NC(=O)NCCN3CCOCC3)sc2c1)c1cc(F)cc(F)c1 (stereo not shown) [Example 62]
179 °C
CC(Oc1ccc2nc(NC(=O)NCCC3CCN(C(=O)OC(C)(C)C)CC3)sc2c1)c1c(Cl)ccc(F)c1Cl (stereo not shown) [Example 38]
95 to 105 °C
CC(Oc1cc2sc(NC(=O)NCCN3CCCC3)nc2cc1F)c1c(Cl)ccc(F)c1Cl (stereo not shown) [Example 84]
178 to 190 °C
COCCCNC(=O)Nc1nc2cc(F)c(OC(C)c3c(Cl)ccc(F)c3Cl)cc2s1 (stereo not shown) [Example 104]
175 °C
CC(Oc1ccc2nc(NC(=O)CCCN3CCOCC3)sc2c1)c1c(Cl)ccc(F)c1Cl (stereo not shown) [Example 65]
141 to 145 °C

Input: Reported melting point, compound CC(Oc1ccc2nc(NC(=O)NCCC3CCCN3C)sc2c1)c1c(F)ccc(Cl)c1Cl (stereo not shown) [Example 110] : ____
Output: 102 to 105 °C

Input: Reported melting point, compound CC(Oc1cc2sc(NC(=O)NCCC3CCCN3C)nc2cc1F)c1c(Cl)ccc(F)c1Cl (stereo not shown) [Example 79] : ____
Output: 78 to 89 °C

Input: Reported melting point, compound CC(Oc1ccc2nc(NC(=O)NCCN3CCOCC3)sc2c1)c1c(F)ccc(Cl)c1F (stereo not shown) [Example 63] : ____
Output: 154 °C

Input: Reported melting point, compound CCN1CCN(CCNC(=O)Nc2nc3cc(F)c(OC(C)c4c(Cl)ccc(F)c4Cl)cc3s2)CC1 (stereo not shown) [Example 100] : ____
Output: 150 to 152 °C

Input: Reported melting point, compound CC(Oc1cc2sc(NC(=O)NCCN(C)Cc3ccccc3)nc2cc1F)c1c(Cl)ccc(F)c1Cl (stereo not shown) [Example 94] : ____
Output: 142 to 146 °C

Input: Reported melting point, compound CC(Oc1ccc2nc(NC(=O)NCCN3CCC(Cc4ccccc4)CC3)sc2c1)c1c(Cl)ccc(F)c1Cl (stereo not shown) [Example 34] : ____
Output: 133 to 139 °C
